system: A549; assay: Cytotoxicity against human A549 cells assessed as growth inhibition after 72 hrs by MTT based WST-8 assay; assay type: functional, cell-based; conditions: A549, 72 h

{"Test smiles": "O=C(Nc1ccc(Oc2ccc(-c3nccs3)cc2)cc1)Nc1cc(C(F)(F)F)ccc1Cl", "Assay system": "A549", "IC50 / µM": 7.04}
{"Test smiles": "O=C(Nc1ccc(Oc2ccc(-c3nccs3)cc2)cc1)Nc1ccc(F)c(C(F)(F)F)c1", "Assay system": "A549", "IC50 / µM": 4.98}
{"Test smiles": "CNC(=O)c1cc(Oc2ccc(NC(=O)Nc3ccc(Cl)c(C(F)(F)F)c3)cc2)ccn1", "Assay system": "A549", "IC50 / µM": 5.21}
{"Test smiles": "O=C(Nc1ccc(Oc2ccc(-c3ncc[nH]3)cc2)cc1)Nc1ccc(F)c(C(F)(F)F)c1", "Assay system": "A549", "IC50 / µM": 10.5}
{"Test smiles": "O=C(Nc1ccc(Oc2ccc(-c3ncc[nH]3)cc2)cc1)Nc1ccc(Cl)c(C(F)(F)F)c1", "Assay system": "A549", "IC50 / µM": 7.09}
{"Test smiles": "O=C(Nc1ccc(Oc2ccc(-c3nccs3)cc2)cc1)Nc1cccc(C(F)(F)F)c1", "Assay system": "A549", "IC50 / µM": 5.56}
{"Test smiles": "O=C(Nc1ccc(Oc2ccc(-c3nccs3)cc2)cc1)Nc1cc(Br)cc(C(F)(F)F)c1", "Assay system": "A549", "IC50 / µM": 2.71}
{"Test smiles": "O=C(Nc1ccc(Oc2ccc(-c3nccs3)cc2)cc1)Nc1ccc(Cl)c(C(F)(F)F)c1", "Assay system": "A549", "IC50 / µM": 3.81}
{"Test smiles": "O=C(Nc1ccc(Oc2ccc(-c3nccs3)cc2)cc1)Nc1ccc(Cl)c([N+](=O)[O-])c1", "Assay system": "A549", "IC50 / µM": 3.89}

====

Listed here are compounds together with their documented inhibition of growth at 10 µM.
system: A549; experiment: Cytotoxicity against human A549 cells assessed as growth inhibition at 10 uM after 72 hrs by MTT based WST-8 assay; format: functional; conditions: A549, 72 h, read-out: GI

{"Test smiles": "O=C(Nc1ccc(Oc2ccc(-c3nccs3)cc2)cc1)Nc1cc(Br)cc(C(F)(F)F)c1", "inhibition of growth at 10 µM (%)": 81.7}
{"Test smiles": "O=C(Nc1ccc(Oc2ccc(-c3ncc[nH]3)cc2)cc1)Nc1cc(Br)cc(C(F)(F)F)c1", "inhibition of growth at 10 µM (%)": 44.1}
{"Test smiles": "Cc1ccc(NC(=O)Nc2ccc(Oc3ccc(-c4ncc[nH]4)cc3)cc2)cc1", "inhibition of growth at 10 µM (%)": 24.6}
{"Test smiles": "Cc1ccc(NC(=O)Nc2ccc(Oc3ccc(-c4nccs4)cc3)cc2)cc1", "inhibition of growth at 10 µM (%)": 15.6}
{"Test smiles": "O=C(Nc1ccccc1)Nc1ccc(Oc2ccc(-c3ncc[nH]3)cc2)cc1", "inhibition of growth at 10 µM (%)": 7.09}
{"Test smiles": "COC(=O)c1sccc1NC(=O)Nc1ccc(Oc2ccc(-c3ncc[nH]3)cc2)cc1", "inhibition of growth at 10 µM (%)": 2.34}
{"Test smiles": "O=C(Nc1ccc(Oc2ccc(-c3ncc[nH]3)cc2)cc1)Nc1ccc(F)c(C(F)(F)F)c1", "inhibition of growth at 10 µM (%)": 63.3}
{"Test smiles": "O=C(Nc1ccc(Oc2ccc(-c3ncc[nH]3)cc2)cc1)Nc1ccc(Cl)c([N+](=O)[O-])c1", "inhibition of growth at 10 µM (%)": 12.4}
{"Test smiles": "O=C(Nc1ccc(Oc2ccc(-c3nccs3)cc2)cc1)Nc1ccc(F)c(Cl)c1", "inhibition of growth at 10 µM (%)": 37.3}

From: ChEMBL document CHEMBL1165866
